test system: ECHORC (Echinochloa oryzoides); experiment: Flooded paddy, preemergence weed control; assay type: in vivo, Echinochloa oryzoides (Ard.) Fritsch.; conditions: rate 0.0320 kg/ha, rated 3-4 weeks after treatment, 0-9 rating scale
Readout: herbicidal rating, ECHORC
Please respond with just the number, no unit label.

# annotated cases, reported herbicidal rating, ECHORC shown
                                   molecule  measured_number
0  Cn1c(C(F)(F)F)cc(=O)n(-c2ccc3snc(C4OCCCO4)c3c2)c1=O [Compound 28]              8.5
1  CN(C(=O)c1nsc2ccc(-n3c(=O)cc(C(F)(F)F)n(C)c3=O)cc12)c1ccc(Cl)cc1 [Compound 18]              6.0
2  COC(=O)C(C)Oc1ccsc1-c1nsc2ccc(-n3c(=O)cc(C(F)(F)F)n(C)c3=O)cc12 (stereo not shown) [Compound 23]              0.0
3  Cc1ccsc1-c1nsc2ccc(-n3c(=O)cc(C(F)(F)F)n(C)c3=O)cc12 [Compound 4]              9.0
4  C[C@@H]1OC(c2nsc3cc(F)c(-n4c(=O)cc(C(F)(F)F)n(C)c4=O)cc23)O[C@@H]1C (stereo partly shown) [Compound 63]              9.0

(Q) Fill in: herbicidal rating, ECHORC of Cc1ccn(-c2nsc3ccc(-n4c(=O)cc(C(F)(F)F)n(C)c4=O)cc23)n1 [Compound 38] is ___
(A) 7.0

(Q) Fill in: herbicidal rating, ECHORC of Cn1c(C(F)(F)F)cc(=O)n(-c2ccc3snc(C4SCCS4)c3c2)c1=O [Compound 24] is ___
(A) 5.0

(Q) Fill in: herbicidal rating, ECHORC of CCc1cc(-c2nsc3ccc(-n4c(=O)cc(C(F)(F)F)n(C)c4=O)cc23)c(CC)s1 [Compound 8] is ___
(A) 9.0

(Q) Fill in: herbicidal rating, ECHORC of Cn1c(C(F)(F)F)cc(=O)n(-c2ccc3snc(C4OCCCS4)c3c2)c1=O (stereo not shown) [Compound 34] is ___
(A) 9.0

(Q) Fill in: herbicidal rating, ECHORC of Cn1c(C(F)(F)F)cc(=O)n(-c2ccc3snc(C4OCC5(CO4)CO5)c3c2)c1=O (stereo not shown) [Compound 70] is ___
(A) 0.0

----------
SETVI herbicidal rating values by entry
System: SETVI (Setaria viridis)
Assay: Postemergence herbicidal evaluation
Format: in vivo, (L.) Beau
Details: postemergence, rate 0.0620 kg/ha
Experimental: In the tests, seedling plants are grown in jiffy flats for about two weeks. The test compounds are dispersed in 50/50 acetone/water mixtures containing 0.5% TWEEN® 20, a polyoxyethylene sorbitan monolaurate surfactant of Atlas Chemical Industries, in sufficient quantities to provide the equivalent of about 0.0040 kg to 1.000 kg per hectare of active compound when applied to the plants through a spray nozzle operating at 40 psi for a predetermined time. […]
Please respond with just the number, no unit label.

In [3]: df
Out[3]:
                                   molecule  measured_number
0  Cn1c(C(F)(F)F)cc(=O)n(-c2ccc3snc(C4OCC(CBr)O4)c3c2)c1=O (stereo not shown)              6.0
1  CC1COC(c2nsc3ccc(-n4c(=O)cc(C(F)(F)F)n(C)c4=O)cc23)O1 (stereo not shown)              9.0

(Q) Fill in: SETVI herbicidal rating of Cn1c(C(F)(F)F)cc(=O)n(-c2ccc3snc(C4OC(C)(C)C(C)(C)O4)c3c2)c1=O is ___
(A) 4.0

(Q) Fill in: SETVI herbicidal rating of Cn1c(C(F)(F)F)cc(=O)n(-c2ccc3snc(-c4sccc4CBr)c3c2)c1=O is ___
(A) 3.0

(Q) Fill in: SETVI herbicidal rating of Cn1c(C(F)(F)F)cc(=O)n(-c2ccc3snc(C4OC(=O)C(C)(C)O4)c3c2)c1=O (stereo not shown) is ___
(A) 7.0

(Q) Fill in: SETVI herbicidal rating of CCCC1COC(c2nsc3ccc(-n4c(=O)cc(C(F)(F)F)n(C)c4=O)cc23)O1 (stereo not shown) is ___
(A) 5.0

(Q) Fill in: SETVI herbicidal rating of Cn1c(C(F)(F)F)cc(=O)n(-c2ccc3snc(C4OCC(CCl)O4)c3c2)c1=O (stereo not shown) is ___
(A) 8.0

----------
test system: TRZAWR (Wheat, Winter, cv Riband); assay: Preemergence herbicidal evaluation; type: in vivo, Triticum aestivum; conditions: Rate 0.2500 kg/ha; rated 4-5 weeks after treatment
Readout: Preemergence herbicidal rating TRZAWR
Please respond with just the number, no unit label.

# annotated cases, reported Preemergence herbicidal rating TRZAWR shown
>>> df
                                   compound  measured_number
0  Cn1c(C(F)(F)F)cc(=O)n(-c2ccc3snc(C4OC(=O)C(C)(C)O4)c3c2)c1=O (stereo not shown)              8.0
1  Cn1c(C(F)(F)F)cc(=O)n(-c2ccc3snc(C4OC(C)(C)C(C)(C)O4)c3c2)c1=O              7.0

(Q) Fill in: Preemergence herbicidal rating TRZAWR of CC1=CC(C)(C)OC(c2nsc3ccc(-n4c(=O)cc(C(F)(F)F)n(C)c4=O)cc23)C1 (stereo not shown) is ___
(A) 9.0

(Q) Fill in: Preemergence herbicidal rating TRZAWR of Cn1c(C(F)(F)F)cc(=O)n(-c2ccc3snc(C4OCCCS4)c3c2)c1=O (stereo not shown) is ___
(A) 7.0

----------
tested on: ORYSAT (Rice, Tebonnet); assay: Flooded paddy, post-transplant rice tolerance; type: in vivo, Oryza sativa, (L.) Tebonnet; conditions: flooded paddy, post-transplant rice; rate 0.0080 kg/ha; rated 3-4 weeks after treatment; 0-9 rating scale
Mark true for reported herbicidal rating, ORYSAT (rice tolerance) of 3 or greater; mark false for anything smaller.

>>> df
                                   compound  qualitative_label
0  COCC1COC(c2nsc3ccc(-n4c(=O)cc(C(F)(F)F)n(C)c4=O)cc23)O1 (centres unmarked) [Compound 64]               true
1  Cn1c(C(F)(F)F)cc(=O)n(-c2ccc3snc(-c4nccs4)c3c2)c1=O [Compound 53]              false
2  Cc1cccnc1-c1nsc2ccc(-n3c(=O)cc(C(F)(F)F)n(C)c3=O)cc12 [Compound 19]              false
3  Cn1c(C(F)(F)F)cc(=O)n(-c2cc3c(C4OCCCO4)nsc3cc2F)c1=O [Compound 62]               true

Below: the item to evaluate.
(Q) Does herbicidal rating, ORYSAT (rice tolerance) meet or surpass 3 for CCc1cc(-c2nsc3ccc(-n4c(=O)cc(C(F)(F)F)n(C)c4=O)cc23)c(CC)s1 [Compound 8] ?
(A) false

----------
system: ABUTH (Abutilon theophrasti); assay: Preemergence herbicidal evaluation; assay type: in vivo, Medic.; details: Rate 0.0620 kg/ha; rated 4-5 weeks after treatment
Preemergence herbicidal rating ABUTH values by entry
Please respond with just the number, no unit label.

>>> df
                                   compound                   system_name  measured_number
0  Cn1c(C(F)(F)F)cc(=O)n(-c2ccc3snc(C4OCCCS4)c3c2)c1=O (centres unmarked)  ABUTH (Abutilon theophrasti)              9.0
1  Cn1c(C(F)(F)F)cc(=O)n(-c2ccc3snc(-c4sccc4CBr)c3c2)c1=O  ABUTH (Abutilon theophrasti)              4.0
2  C=CC1COC(c2nsc3ccc(-n4c(=O)cc(C(F)(F)F)n(C)c4=O)cc23)O1 (centres unmarked)  ABUTH (Abutilon theophrasti)              9.0

(Q) Fill in: Preemergence herbicidal rating ABUTH of CC(C)C1COC(c2nsc3ccc(-n4c(=O)cc(C(F)(F)F)n(C)c4=O)cc23)=N1 (centres unmarked) is ___
(A) 3.0

(Q) Fill in: Preemergence herbicidal rating ABUTH of Cn1c(C(F)(F)F)cc(=O)n(-c2ccc3snc(-c4ccco4)c3c2)c1=O is ___
(A) 5.0

----------
Preemergence herbicidal rating ABUTH values by entry
tested on: ABUTH (Abutilon theophrasti); assay: Preemergence herbicidal evaluation; type: in vivo, Medic.; details: Rate 0.2500 kg/ha; rated 4-5 weeks after treatment

                                   molecule  result
0  Cc1cc(C)nc(-c2nsc3ccc(-n4c(=O)cc(C(F)(F)F)n(C)c4=O)cc23)n1 [Compound 40]     9.0
1  Cn1c(C(F)(F)F)cc(=O)n(-c2ccc3snc(C4OCCCS4)c3c2)c1=O (centres unmarked) [Compound 34]     9.0
2  Cn1c(C(F)(F)F)cc(=O)n(-c2ccc3snc(C4(C)OCCO4)c3c2)c1=O [Compound 54]     9.0
3  Cc1ccc(-c2nsc3ccc(-n4c(=O)cc(C(F)(F)F)n(C)c4=O)cc23)nc1 [Compound 42]     9.0
4  Cc1sccc1-c1nsc2ccc(-n3c(=O)cc(C(F)(F)F)n(C)c3=O)cc12 [Compound 68]     9.0

(Q) Fill in: Preemergence herbicidal rating ABUTH of C[C@@H]1OC(c2nsc3ccc(-n4c(=O)cc(C(F)(F)F)n(C)c4=O)cc23)O[C@@H]1C (some centres unmarked) [Compound 47] is ___
(A) 9.0

(Q) Fill in: Preemergence herbicidal rating ABUTH of Cn1c(C(F)(F)F)cc(=O)n(-c2ccc3snc(-c4nccs4)c3c2)c1=O [Compound 53] is ___
(A) 9.0

(Q) Fill in: Preemergence herbicidal rating ABUTH of Cc1nn(-c2nsc3ccc(-n4c(=O)cc(C(F)(F)F)n(C)c4=O)cc23)c(C)c1C [Compound 49] is ___
(A) 0.0

Ref: patent US6706663B2
